Biological target: SIRT1 (Homo sapiens)
Assay: Fluorescence polarization or mass spectrometry based assay to identify modulators of SIRT1 activity
Details: activation of SIRT1 (Table 3); read-out: ED50 (the source's name)
reportedEndpoint: EC50

## Task Query: EC50; subject: "O=C(Nc1c(C(=O)O)[nH]c2ccc(Br)cc12)c1ccc(F)cc1"
## Result 51 to 100 µM

## Task Query: EC50; subject: "CCCCNc1c(-c2ccc(OC)c([N+](=O)[O-])c2)nc2c(C(=O)NCCCN)cccn12"
## Result 101 to 150 µM

## Task Query: EC50; subject: "COCCNC(=O)c1cccn2c(NCc3ccccc3)c(-c3ccc(NC(=O)c4ccco4)cc3)nc12"
## Result > 150 µM

## Task Query: EC50; subject: "N#C/C(=C\c1ccc(-c2ccc(C(=O)O)cc2)o1)c1nc2ccccc2[nH]1"
## Result < 50 µM

---

Biological target: SIRT1 (Homo sapiens, UniProt Q96EB6)
Assay: Fluorescence polarization or mass spectrometry based assay to identify modulators of SIRT1 activity;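 further: deacetylation of a fluorophore-tagged p53-derived acetyl peptide by SIRT1, detected as fluorescence polarization after trypsin cleavage and streptavidin binding, compounds tested at 11 doses from 0.7 to 100 µM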
Settings: activation of SIRT1 (Table 3); read-out: ED50 (the source's name)
Field: EC50. Provide a value for each of the compounds that follow.

## Task Query: EC50; subject: "COc1ccc(-c2nc3c(C(=O)NCCCN)cccn3c2NCc2ccccc2)cc1[N+](=O)[O-]"
## Result 101 to 150 µM

## Task Query: EC50; subject: "CC(C)CC(=O)Nc1ccc(-c2nc3c(C(=O)NCCN4CCNC4=O)cccn3c2NC(C)(C)C)cc1"
## Result > 150 µM

## Task Query: EC50; subject: "O=C(NCCCN1CCCC1=O)c1cccn2c(NC3CCCCC3)c(-c3ccc(NC(=O)N4CCOCC4)cc3)nc12"
## Result < 50 µM

## Task Query: EC50; subject: Cc1nn(C)c(Cl)c1-c1nc2c(C(=O)NC(C)C(=O)NCCC#N)cccn2c1NCc1ccccc1 (stereo not shown)
## Result 101 to 150 µM

---

Target: SIRT1 (Homo sapiens, UniProt Q96EB6)
Sequence (Q96EB6 1-747): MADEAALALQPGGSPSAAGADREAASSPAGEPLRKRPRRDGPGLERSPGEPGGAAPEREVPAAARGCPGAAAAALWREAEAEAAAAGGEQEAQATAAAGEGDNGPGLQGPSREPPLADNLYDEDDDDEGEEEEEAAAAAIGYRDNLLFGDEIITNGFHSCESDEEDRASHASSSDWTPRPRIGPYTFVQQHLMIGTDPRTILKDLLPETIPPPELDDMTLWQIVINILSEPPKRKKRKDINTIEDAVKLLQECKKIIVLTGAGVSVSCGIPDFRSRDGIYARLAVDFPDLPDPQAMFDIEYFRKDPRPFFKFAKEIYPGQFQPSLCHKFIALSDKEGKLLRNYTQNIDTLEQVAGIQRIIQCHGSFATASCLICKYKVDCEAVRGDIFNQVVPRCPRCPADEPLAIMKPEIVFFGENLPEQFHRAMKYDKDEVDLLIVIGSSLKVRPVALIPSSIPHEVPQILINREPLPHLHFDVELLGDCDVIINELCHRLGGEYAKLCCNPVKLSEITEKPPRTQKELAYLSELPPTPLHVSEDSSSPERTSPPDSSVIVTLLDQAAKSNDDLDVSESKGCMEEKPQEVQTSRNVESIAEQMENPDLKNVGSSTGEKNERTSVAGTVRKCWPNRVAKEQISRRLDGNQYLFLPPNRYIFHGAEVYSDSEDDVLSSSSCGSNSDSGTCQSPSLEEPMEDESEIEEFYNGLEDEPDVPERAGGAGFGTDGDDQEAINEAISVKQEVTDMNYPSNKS
Assay: Fluorescence polarization or mass spectrometry based assay to identify modulators of SIRT1 activity
Conditions: activation of SIRT1 (Table 3); read-out: ED50 (the source's name)
reportedEndpoint: EC50

## Task Query: EC50; subject: COc1cc(C(=O)Nc2cccc(-c3nc4ccccc4[nH]3)c2)cc(OC)c1OC [Compound 11]
## Result 51 to 100 µM

## Task Query: EC50; subject: COc1cccc(C(=O)Nc2cccc(-c3cn4ccccc4n3)c2)c1 [Compound 23]
## Result > 150 µM

## Task Query: EC50; subject: N#CC(C(=O)c1cc2ccccc2o1)c1nc2ccccc2s1 (centres unmarked) [Compound 12]
## Result 51 to 100 µM

## Task Query: EC50; subject: Nc1ccc(C(=O)Nc2ccc3[nH]c(-c4ccccc4)nc3c2)cc1 [Compound 4]
## Result 51 to 100 µM

## Task Query: EC50; subject: Cc1nc2cc3nc4c5cccc6cccc(c(=O)n4c3cc2[nH]1)c65 [Compound 66]
## Result 101 to 150 µM

## Task Query: EC50; subject: COC(=O)c1[nH]c2cc(OC)c(OC)cc2c1NC(=O)c1cccs1 [Compound 20]
## Result 101 to 150 µM

## Task Query: EC50; subject: O=C(O)CCC(=O)Nc1cccc(-c2nc3cc4ccccc4cc3[nH]2)c1 [Compound 65]
## Result > 150 µM

## Task Query: EC50; subject: CC(=O)NCCNC(=O)c1cccn2c(NCc3ccccc3)c(-c3ccc(NC(=O)c4ccco4)cc3)nc12 [Compound 52]
## Result 101 to 150 µM

## Task Query: EC50; subject: CC(=O)Nc1ccc(-c2nc3c(C(=O)NC4CCC(N)CC4)cccn3c2NC2CCCCC2)cc1 (centres unmarked) [Compound 27]
## Result 51 to 100 µM

## Task Query: EC50; subject: Cc1[nH]c2ccccc2c1/C=C/c1nc2ccccc2c(=O)[nH]1 [Compound 17]
## Result > 150 µM

## Task Query: EC50; subject: O=C(Nc1ccc(-c2nc3c(C(=O)NCCN4CCNC4=O)cccn3c2NCc2ccccc2)cc1)c1ccco1 [Compound 54]
## Result > 150 µM

## Task Query: EC50; subject: O=C(O)CC(NC(=O)c1cccn2c(NCc3ccccc3)c(-c3ccc4ccccc4c3)nc12)C1CCCCC1 (centres unmarked) [Compound 38]
## Result > 150 µM

## Task Query: EC50; subject: Cc1csc(NC(=O)c2ccccc2C(=O)O)c1-c1nc2ccccc2s1 [Compound 6]
## Result < 50 µM

## Task Query: EC50; subject: CCCCNc1c(-c2ccc(NC(=O)CC(C)C)cc2)nc2c(C(=O)NCCN3CCNC3=O)cccn12 [Compound 56]
## Result > 150 µM

## Task Query: EC50; subject: Cc1ccsc1/C=C(\C#N)c1nc2ccccc2[nH]1 [Compound 19]
## Result 101 to 150 µM

## Task Query: EC50; subject: Nc1ccc2[nH]c(/C=C/c3nc4cc(N)ccc4[nH]3)nc2c1 [Compound 18]
## Result 51 to 100 µM

## Task Query: EC50; subject: COCCNC(=O)c1cccn2c(NCc3ccccc3)c(-c3ccc(NC(=O)N4CCOCC4)cc3)nc12 [Compound 49]
## Result 51 to 100 µM

---

Field: EC50. Provide a value for each of the compounds that follow.
Molecular target: SIRT1 (Homo sapiens)
Test: Fluorescence polarization or mass spectrometry based assay to identify modulators of SIRT1 activity
Conditions: activation of SIRT1 (Table 3); read-out: ED50 (the source's name)

## Task Query: EC50; subject: COc1ccccc1NC(=O)Nc1nn(C)c2cccc(OC)c12 [Compound 7]
## Result 101 to 150 µM

## Task Query: EC50; subject: CC(NC(=O)c1cccn2c(NCC3CCCO3)c(-c3ccc(Cl)cc3)nc12)C(=O)NCCC#N (stereo not drawn) [Compound 43]
## Result < 50 µM

## Task Query: EC50; subject: O=C(NCCN1CCNC1=O)c1cccn2c(NCc3ccccc3)c(-c3ccc(NC(=O)N4CCOCC4)cc3)nc12 [Compound 53]
## Result 101 to 150 µM

## Task Query: EC50; subject: COc1ccc(-c2nc3c(C(=O)NC(C)C(=O)NCCC#N)cccn3c2NCC2CCCO2)cc1 (stereo not drawn) [Compound 44]
## Result 101 to 150 µM

## Task Query: EC50; subject: CC(=O)Nc1ccc(-c2nc3c(C(=O)NC(CC(=O)O)C4CCCCC4)cccn3c2NC(C)(C)C)cc1 (stereo not drawn) [Compound 36]
## Result 101 to 150 µM

## Task Query: EC50; subject: CC(NC(=O)c1cccn2c(NCC3CCCO3)c(-c3ccc(N(C)C)cc3)nc12)C(=O)NCCC#N (stereo not drawn) [Compound 45]
## Result 51 to 100 µM

## Task Query: EC50; subject: CC(=O)Nc1ccc(-c2nc3c(C(=O)NC(C)C(=O)NCCCN4CCCC4=O)cccn3c2NCc2ccccc2)cc1 (stereo not drawn) [Compound 41]
## Result 101 to 150 µM

## Task Query: EC50; subject: COc1ccc(-c2nc3c(C(=O)NC(CC(=O)O)C4CCCCC4)cccn3c2NCc2ccccc2)cc1[N+](=O)[O-] (stereo not drawn) [Compound 31]
## Result > 150 µM

## Task Query: EC50; subject: O=C(Nc1ccc(-c2nc3c(C(=O)NCCCN4CCCC4=O)cccn3c2NC2CCCCC2)cc1)c1ccco1 [Compound 59]
## Result 101 to 150 µM

## Task Query: EC50; subject: COc1ccc2c(c1)C(=O)C(c1nc3ccccc3s1)C2=O (stereo not drawn) [Compound 62]
## Result < 50 µM

## Task Query: EC50; subject: Cc1cc(C(=O)Nc2ccc(-c3nc4c(C(=O)NCCN5CCNC5=O)cccn4c3NCc3ccccc3)cc2)no1 [Compound 55]
## Result > 150 µM

## Task Query: EC50; subject: COc1ccc(-c2nc3c(C(=O)NC(CC(=O)O)C4CCCCC4)cccn3c2NC(C)(C)C)cc1[N+](=O)[O-] (stereo not drawn) [Compound 29]
## Result > 150 µM

## Task Query: EC50; subject: COc1ccc(-c2nc3cc(C(=O)NC(CC(=O)O)c4ccc(C)cc4)ccn3c2NC2CCCCC2)cc1OC (stereo not drawn) [Compound 39]
## Result 101 to 150 µM

## Task Query: EC50; subject: CCCCNc1c(-c2ccc(NC(=O)c3ccc(Cl)nc3)cc2)nc2c(C(=O)NCCCN3CCCC3=O)cccn12 [Compound 61]
## Result > 150 µM

## Task Query: EC50; subject: Nc1ccc2nc(-c3ccc(-c4nc5ccc(N)cc5[nH]4)cc3)[nH]c2c1 [Compound 15]
## Result 51 to 100 µM
